FYI, the data here is from the supplement of paper PMC10065799.

# TEST_SYSTEM: c-Src SH2;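 further: peptide library displayed on the E. coli surface as eCPX fusions, selected cells deep-sequenced, score is each peptide's frequency after selection divided by its frequency in the input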
# ASSAY_INFO: SH2 binding enrichment of the phosphorylated peptide, bacterial display (enrichment ratio); higher = better substrate or ligand; peptides without Tyr show the background
MEASURED_PARAMETER: SH2 binding enrichment
One number for each entry.

Solved entries (count: 8):
[ask] Consider the sequence RAEIVYKSPVV [MAPT_Y711_G706R] and give its measured SH2 binding enrichment.
[reply] 0.452

[ask] Consider the sequence shown here: AEQDCYHGAIP [FER_Y461_W460C] What is its recorded SH2 binding enrichment?
[reply] 0.65

[ask] Entry under review: YQEPVYSVAFS [TBL1X_Y509_H504Y] . Reported SH2 binding enrichment?
[reply] 2.93

[ask] Suppose we examine the sequence SPPILYSFYLD [FCRL6_Y239] ; what SH2 binding enrichment value has been reported?
[reply] 0.882

[ask] Quick check: SH2 binding enrichment of RISGVYKLPPD [ANGPTL7_Y145] ?
[reply] 0.525

[ask] Dear colleague, I am looking for the recorded SH2 binding enrichment of the following sequence: ERDYTYEELLN [EIF2S2_Y176]
[reply] 1.1

[ask] Query (sequence): TKQLTYEEQYL [PIK3C3_Y310_D314Y] ; field requested: SH2 binding enrichment
[reply] 0.538

[ask] Fill blank: measured SH2 binding enrichment of the sequence AGREEYSAMRD [KRAS_Y64_Q61R] is ____.
[reply] 1.02

Batch of 3 sequences: report SH2 binding enrichment for each.
1. MGCVNYGAFIN [GLB1_Y485_R482C_YF]
2. FSQETYFRVSN [ABCD1_Y180_Q178E_YF]
3. DNAFQYMLTDR [MYH7_Y164_YF]

[reply]
0.514
0.466
0.685
